experimentDescription: MTT cell viability / cytotoxicity on normal fibroblasts
Assay type: cell-based, mouse
details: mouse; 50 µg/mL, 24h; read-out: Cell viability on NCTC cells (%)
readoutLabel: viability at 24 h, 50 µg/mL

{"columns": ["compound", "measured"],
 "data": [
  ["Cc1nn(CN(Cn2nc(C)c([N+](=O)[O-])c2C)c2cccc(Cl)c2)c(C)c1[N+](=O)[O-] [5e]", "65.8%"],
  ["C[C@@H]1CC[C@@]2(OC1)O[C@H]1C[C@H]3[C@@H]4CC=C5C[C@@H](O[C@@H]6O[C@H](CO)[C@@H](O[C@@H]7O[C@@H](C)[C@H](O)[C@@H](O)[C@H]7O)[C@H](O)[C@H]6O[C@@H]6O[C@@H](C)[C@H](O)[C@@H](O)[C@H]6O)CC[C@]5(C)[C@H]4CC[C@]3(C)[C@H]1[C@@H]2C [dioscin, reference compound]", "13.7%"]
]}

====

melting point values for the compounds below.
readoutLabel: melting point

{"columns": ["molecule", "measured"],
 "data": [
  ["Cc1nn(CNc2cccc(Cl)c2)c(C)c1[N+](=O)[O-]", "110 to 111 °C"],
  ["Cc1nn(CNc2ccccc2Cl)c(C)c1[N+](=O)[O-]", "134 to 135 °C"],
  ["Cc1nn(CNc2ccc(F)cc2)c(C)c1[N+](=O)[O-]", "117 to 119 °C"],
  ["Cc1nn(CNc2ccc(Br)cc2)c(C)c1[N+](=O)[O-]", "118 to 120 °C"],
  ["Cc1nn(CN(Cn2nc(C)c([N+](=O)[O-])c2C)c2ccc(F)cc2)c(C)c1[N+](=O)[O-]", "78 to 80 °C"],
  ["Cc1nn(CNc2ccc(I)cc2)c(C)c1[N+](=O)[O-]", "91 to 92 °C"],
  ["Cc1nn(CN(Cn2nc(C)c([N+](=O)[O-])c2C)c2ccc(Br)cc2)c(C)c1[N+](=O)[O-]", "133 to 135 °C"],
  ["Cc1nn(CNc2ccc(Cl)cc2)c(C)c1[N+](=O)[O-]", "99 to 100 °C"],
  ["Cc1nn(CN(Cn2nc(C)c([N+](=O)[O-])c2C)c2ccc(Cl)cc2)c(C)c1[N+](=O)[O-]", "132 to 134 °C"],
  ["Cc1nn(CN(Cn2nc(C)c([N+](=O)[O-])c2C)c2cccc(Cl)c2)c(C)c1[N+](=O)[O-]", "154 to 155 °C"]
]}

====

Parameter: viability at 48 h, 3.1 µg/mL. Scope: all listed entries.
experimentDescription: MTT cell viability / cytotoxicity on normal fibroblasts
Assay type: cell-based, mouse
details: mouse, NCTC clone 929 (L929) mouse fibroblast cells, 3.1 µg/mL, 48h

{"columns": ["molecule", "viability at 48 h, 3.1 µg/mL / %"],
 "data": [
  ["Cc1nn(CNc2ccc(Cl)cc2)c(C)c1[N+](=O)[O-]", 95.1],
  ["Cc1nn(CNc2ccc(I)cc2)c(C)c1[N+](=O)[O-]", 95.7],
  ["Cc1nn(CNc2ccccc2Cl)c(C)c1[N+](=O)[O-]", 99.6],
  ["Cc1nn(CNc2cccc(Cl)c2)c(C)c1[N+](=O)[O-]", 89.5],
  ["Cc1nn(CNc2ccc(Br)cc2)c(C)c1[N+](=O)[O-]", 99.7]
]}
